Answer each item with its documented CC50 at 24 h.
- Measurement Notes: Cytotoxicity against BALB/c mouse peritoneal cells assessed as reduction in cell viability after 24 hrs by MTT assay
- Format: cell-based
Numbers only here, please. The scale is µM.

Ask: For the molecule `Cc1nn(-c2ccc(S(=O)(=O)Nc3ccc(Cl)cc3)cc2)c(Cl)c1Br` , give its measured CC50 at 24 h value.
Result: 116

Ask: Provide measured CC50 at 24 h value, entry: `Cc1nn(-c2ccc(S(=O)(=O)Nc3ccccc3)cc2)c(Cl)c1Br`
Result: 144

###

- Test system: Leishmania amazonensis
- Measurement Notes: Antileishmanial activity against Leishmania amazonensis […]/BR/75/Josefa promastigotes
- Format: functional, organism-based
Measured Endpoint: IC50 (µM)
State the answer as a number, implicitly in µM.

Ask: Please indicate IC50 recorded for `CCCCNC(=O)c1cc2c([nH]c3ccccc32)c(-c2ccc(OC)cc2)n1`
Result: 4.44

###

- Tested on: Leishmania mexicana
- Measurement Notes: Antileishmanial activity against Leishmania mexicana LV4 promastigotes
- Format: functional, organism-based
Measured Endpoint: IC50 (nM)
Just the number in nM, nothing appended.

Ask: Hello, please tell me recorded IC50 for this one: `C=CCCCCC/C=C\CC#CC#C[C@@H](O)C=C`
Result: 550
